Cited source: the supplement of paper PMC7877785

test: self-splicing fitness, log relative to wild type (ln ratio); higher = more splicing; Tetrahymena group I intron in knt gene, E. coli kanamycin selection, DiMSum; sequences stand for … in CUCUCU…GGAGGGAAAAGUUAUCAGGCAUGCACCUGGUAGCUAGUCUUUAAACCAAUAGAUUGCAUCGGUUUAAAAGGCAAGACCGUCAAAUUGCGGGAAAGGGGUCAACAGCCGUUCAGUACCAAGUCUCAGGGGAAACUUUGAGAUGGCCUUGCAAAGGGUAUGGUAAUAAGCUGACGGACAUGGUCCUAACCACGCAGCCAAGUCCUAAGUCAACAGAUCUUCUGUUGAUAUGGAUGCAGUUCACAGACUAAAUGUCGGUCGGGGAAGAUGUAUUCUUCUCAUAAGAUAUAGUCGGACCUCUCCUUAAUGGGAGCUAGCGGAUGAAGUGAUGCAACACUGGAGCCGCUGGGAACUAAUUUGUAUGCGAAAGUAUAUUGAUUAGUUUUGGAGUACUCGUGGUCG; conditions: 30 °C;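 also: selection with 25 µg/mL kanamycin versus none on LB agar overnight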
Provide the recorded self-splicing fitness (ln) for the entries that follow.
Please reply with the number alone, leaving off any unit.

For the sequence `CUUUAGCAAUAUUACGUAAG` , give its measured self-splicing fitness (ln) value.
-0.953

For the sequence `CUUUAGCAAUAUUACGGUUC` , give its measured self-splicing fitness (ln) value.
-3.33

For the sequence `UCGCAGCAAUAUUACGCGUG` , give its measured self-splicing fitness (ln) value.
-3.34

For the sequence `GAGCAGCAAUAUUACGAACU` , give its measured self-splicing fitness (ln) value.
-1.17

For the sequence `UCCCAGCAAUAUUACGAUGG` , give its measured self-splicing fitness (ln) value.
-3.71

For the sequence `AGCCAGCAAUAUUACGCUAC` , give its measured self-splicing fitness (ln) value.
-2.52

For the sequence `AUUAAGCAAUAUUACGUGUG` , give its measured self-splicing fitness (ln) value.
-1.9

For the sequence `GCCUAGCAAUAUUACGUAUC` , give its measured self-splicing fitness (ln) value.
-1.26

For the sequence `UUCGAGCAAUAUUACGAGGU` , give its measured self-splicing fitness (ln) value.
-2.94

For the sequence `UCGAAGCAAUAUUACGUUUU` , give its measured self-splicing fitness (ln) value.
-3.28

For the sequence `CCAAAGCAAUAUUACGUCCG` , give its measured self-splicing fitness (ln) value.
-0.225

For the sequence `UUUGAGCAAUAUUACGCCUA` , give its measured self-splicing fitness (ln) value.
-0.79

For the sequence `AACAAGCAAUAUUACGCUGG` , give its measured self-splicing fitness (ln) value.
-2.25

For the sequence `AAACAGCAAUAUUACGCGAU` , give its measured self-splicing fitness (ln) value.
-2.98

For the sequence `GGUGAGCAAUAUUACGGCAC` , give its measured self-splicing fitness (ln) value.
-1.85

For the sequence `AAACAGCAAUAUUACGUCCU` , give its measured self-splicing fitness (ln) value.
-0.281

For the sequence `GAAAAGCAAUAUUACGGGGC` , give its measured self-splicing fitness (ln) value.
-2.89

For the sequence `UUAUAGCAAUAUUACGGCUC` , give its measured self-splicing fitness (ln) value.
-2.3

For the sequence `ACUAAGCAAUAUUACGCCUG` , give its measured self-splicing fitness (ln) value.
-1.78

For the sequence `CGAUAGCAAUAUUACGCAUG` , give its measured self-splicing fitness (ln) value.
-1.79

For the sequence `GCCGAGCAAUAUUACGCUUA` , give its measured self-splicing fitness (ln) value.
-1.21

For the sequence `ACGCAGCAAUAUUACGGAAU` , give its measured self-splicing fitness (ln) value.
-2.27

For the sequence `GAUGAGCAAUAUUACGACUA` , give its measured self-splicing fitness (ln) value.
-1.79

For the sequence `UUAUAGCAAUAUUACGUACC` , give its measured self-splicing fitness (ln) value.
-3.97

For the sequence `UGACAGCAAUAUUACGUGGA` , give its measured self-splicing fitness (ln) value.
-3

For the sequence `CCGAAGCAAUAUUACGUCGA` , give its measured self-splicing fitness (ln) value.
-2.38

For the sequence `GACCAGCAAUAUUACGCUUU` , give its measured self-splicing fitness (ln) value.
-0.00419

For the sequence `GCAGAGCAAUAUUACGCCGG` , give its measured self-splicing fitness (ln) value.
-2.85

For the sequence `UGUAAGCAAUAUUACGCCGA` , give its measured self-splicing fitness (ln) value.
-1.5

For the sequence `GGACAGCAAUAUUACGGGGG` , give its measured self-splicing fitness (ln) value.
-2.84

For the sequence `GCAAAGCAAUAUUACGUAAC` , give its measured self-splicing fitness (ln) value.
-1.67

For the sequence `GCGGAGCAAUAUUACGCUUG` , give its measured self-splicing fitness (ln) value.
-3.14

For the sequence `AUUUAGCAAUAUUACGCUCU` , give its measured self-splicing fitness (ln) value.
0.51

For the sequence `CCCAAGCAAUAUUACGACUC` , give its measured self-splicing fitness (ln) value.
-3.56

For the sequence `GGUGAGCAAUAUUACGAUAG` , give its measured self-splicing fitness (ln) value.
-0.576

For the sequence `CCCGAGCAAUAUUACGUACC` , give its measured self-splicing fitness (ln) value.
-2

For the sequence `AACGAGCAAUAUUACGAACU` , give its measured self-splicing fitness (ln) value.
-1.11

For the sequence `GGGAAGCAAUAUUACGCCUA` , give its measured self-splicing fitness (ln) value.
-0.134

For the sequence `AGGGAGCAAUAUUACGCGCG` , give its measured self-splicing fitness (ln) value.
-1.62

For the sequence `UAUCAGCAAUAUUACGAACA` , give its measured self-splicing fitness (ln) value.
-0.0668

For the sequence `UGUAAGCAAUAUUACGGAUG` , give its measured self-splicing fitness (ln) value.
-0.704

For the sequence `UACCAGCAAUAUUACGGAAG` , give its measured self-splicing fitness (ln) value.
-3.5

For the sequence `GAGCAGCAAUAUUACGUGAU` , give its measured self-splicing fitness (ln) value.
-2.21

For the sequence `AGAUAGCAAUAUUACGCGUG` , give its measured self-splicing fitness (ln) value.
-1.44

For the sequence `GUUCAGCAAUAUUACGUUGG` , give its measured self-splicing fitness (ln) value.
-2.92

For the sequence `CAGUAGCAAUAUUACGAAUA` , give its measured self-splicing fitness (ln) value.
-4.27

For the sequence `UAUAAGCAAUAUUACGUAGG` , give its measured self-splicing fitness (ln) value.
-3

For the sequence `GAAUAGCAAUAUUACGACCA` , give its measured self-splicing fitness (ln) value.
-0.287

For the sequence `CUCCAGCAAUAUUACGCGGG` , give its measured self-splicing fitness (ln) value.
-3.86

For the sequence `AGUAAGCAAUAUUACGCAGU` , give its measured self-splicing fitness (ln) value.
-4.13

For the sequence `AAAUAGCAAUAUUACGGAGU` , give its measured self-splicing fitness (ln) value.
-3.7

For the sequence `AGGCAGCAAUAUUACGAAUA` , give its measured self-splicing fitness (ln) value.
-2.67

For the sequence `UGGUAGCAAUAUUACGACAG` , give its measured self-splicing fitness (ln) value.
-0.598

For the sequence `GACAAGCAAUAUUACGUUUC` , give its measured self-splicing fitness (ln) value.
-4.22

For the sequence `UAAGAGCAAUAUUACGCAAA` , give its measured self-splicing fitness (ln) value.
-2.38

For the sequence `ACUAAGCAAUAUUACGGUCU` , give its measured self-splicing fitness (ln) value.
-1.45

For the sequence `CCCCAGCAAUAUUACGAACC` , give its measured self-splicing fitness (ln) value.
-4.18

For the sequence `AGAUAGCAAUAUUACGGCUG` , give its measured self-splicing fitness (ln) value.
-0.377

For the sequence `ACUUAGCAAUAUUACGGGAC` , give its measured self-splicing fitness (ln) value.
-3.61

For the sequence `CGCCAGCAAUAUUACGGUUC` , give its measured self-splicing fitness (ln) value.
-2.29

For the sequence `GACAAGCAAUAUUACGGUUG` , give its measured self-splicing fitness (ln) value.
-2.3
